This section presents compounds with their documented Herbicidal rating CYPSE values.
# Test system: CYPSE (Flatsedge)
# experiment: Postemergence weed control under flooded paddy conditions
# Assay type: in vivo, Cyperus serotinus
# measurement context: Rate 0.0625 kg/ha, postemergence weeds, rated 3 to 4 weeks after treatment
measurement type: Herbicidal rating CYPSE

> print(dat)
                                   compound  readout.number
1  CCOC(=O)CN1C(=O)C(CC(=O)NS(=O)(=O)c2ccccc2)SC1=Nc1cc(-n2c(=O)cc(C(F)(F)F)n(C)c2=O)c(F)cc1Cl (centres unmarked)             0.0
2  CCOC(=O)C(c1ccc(Cl)cc1)N1C(=O)CSC1=Nc1cc(-n2c(=O)cc(C(F)(F)F)n(C)c2=O)c(F)cc1Cl (racemic)             0.0
3  CCOC(=O)CN1C(=O)C(CC(=O)OC(C)C(=O)OCC)S/C1=N/c1cc(-n2c(=O)cc(C(F)(F)F)n(C)c2=O)c(F)cc1Cl (centres unmarked)             0.0
4  COC(=O)CC1SC(=Nc2cc(-n3c(=O)cc(C(F)(F)F)n(C)c3=O)c(F)cc2Cl)N(C)C1=O (centres unmarked)             5.0
5  COC(=O)[C@H](Cc1ccc([N+](=O)[O-])cc1)N1C(=O)CSC1=Nc1cc(-n2c(=O)cc(C(F)(F)F)n(C)c2=O)c(F)cc1Cl             6.0
6  CCOC(=O)CN1C(=O)C(Cc2ccccc2OC(C)C(=O)O)S/C1=N/c1cc(-n2c(=O)cc(C(F)(F)F)n(C)c2=O)c(F)cc1Cl (centres unmarked)             0.0
7  C=CCN1C(=O)C(CC(=O)O)SC1=Nc1cc(-n2c(=O)cc(C(F)(F)F)n(C)c2=O)c(F)cc1Cl (centres unmarked)             0.0
8  Cn1c(C(F)(F)F)cc(=O)n(-c2cc(N=C3SCC(=O)N3CC(=O)OCC#N)c(Cl)cc2F)c1=O             0.0

----------
This section presents molecules with their documented Herbicidal rating CYPIR values.
# Test system: CYPIR (Rice Flatsedge)
# experiment: Preemergence weed control under flooded paddy conditions
# Type: in vivo, Cyperus iria
# measurement context: 0.2500 kg/ha, rated 3-4 weeks after treatment
measurement type: Herbicidal rating CYPIR

> print(dat)
                                   molecule         measurement.type  readout.number
1  COC(=O)CN1C(=O)CSC1=Nc1cc(-n2c(=O)cc(C(F)(F)F)n(C)c2=O)c(F)cc1Cl [Compound 17]  Herbicidal rating CYPIR             9.0
2  C=CCN1C(=O)CSC1=Nc1cc(-n2c(=O)cc(C(F)(F)F)n(C)c2=O)c(F)cc1Cl [Compound 27]  Herbicidal rating CYPIR             9.0
3  CCOC(=O)CN1C(=O)C(CC(=O)NC)SC1=Nc1cc(-n2c(=O)cc(C(F)(F)F)n(C)c2=O)c(F)cc1Cl (centres unmarked) [Compound 57]  Herbicidal rating CYPIR             9.0
4  CCOC(=O)CN1C(=O)C(CC)SC1=Nc1cc(-n2c(=O)cc(C(F)(F)F)n(C)c2=O)c(F)cc1Cl (centres unmarked) [Compound 13]  Herbicidal rating CYPIR             1.0
5  CCOC(=O)CN1C(=O)C(C)SC1=Nc1cc(-n2c(=O)cc(C(F)(F)F)n(C)c2=O)c(F)cc1Cl (centres unmarked) [Compound 12]  Herbicidal rating CYPIR             0.0
6  Cn1c(C(F)(F)F)cc(=O)n(-c2cc(/N=C3/SCC(=O)N3CC(=O)O)c(Cl)cc2F)c1=O [Compound 52]  Herbicidal rating CYPIR             2.0
7  CN1C(=O)CSC1=Nc1cc(N2C(=O)C3=C(CCCC3)C2=O)c(F)cc1Cl [Compound 1]  Herbicidal rating CYPIR             9.0
8  CC1SC(=Nc2cc(-n3c(=O)cc(C(F)(F)F)n(C)c3=O)c(F)cc2Cl)N(C)C1=O (centres unmarked) [Compound 9]  Herbicidal rating CYPIR             6.0

----------
# Test system: TRZAWR (Wheat, Winter, cv Riband)
# experiment: Postemergence herbicidal evaluation
# Format: in vivo, Triticum aestivum
# measurement context: postemergence, rate 0.0625 kg/ha
measurement type: herbicidal rating TRZAWR

> print(dat)
                                   compound                  system.under.test  readout.number
1  COCCN1C(=O)CSC1=Nc1cc(-n2c(=O)cc(C(F)(F)F)n(C)c2=O)c(F)cc1Cl  TRZAWR (Wheat, Winter, cv Riband)             3.0
2  Cn1c(C(F)(F)F)cc(=O)n(-c2cc(N=C3SCC(=O)N3Cc3ccco3)c(Cl)cc2F)c1=O  TRZAWR (Wheat, Winter, cv Riband)             4.5
3  CCS(=O)(=O)NC(=O)CC1SC(=Nc2cc(-n3c(=O)cc(C(F)(F)F)n(C)c3=O)c(F)cc2Cl)N(C)C1=O (stereo not shown)  TRZAWR (Wheat, Winter, cv Riband)             3.5
4  CCOC(=O)CN1C(=O)C(C(=O)OCC)SC1=Nc1cc(-n2c(=O)cc(C(F)(F)F)n(C)c2=O)c(F)cc1Cl (stereo not shown)  TRZAWR (Wheat, Winter, cv Riband)             3.5

----------
This section presents molecules with their documented Preemergence herbicidal rating GLXMAW values.
# System: GLXMAW (Soybean, Williams)
# experiment: Preemergence herbicidal evaluation
# Format: in vivo, Glycine max, (L.) Merr. cv Williams
# measurement context: rate 0.2500 kg/ha; rated 4-5 weeks after treatment
measurement type: Preemergence herbicidal rating GLXMAW

> print(dat)
                                    molecule  readout.number
 1  CCOC(=O)CN1C(=O)C(Cc2ccccc2OC(C)C(=O)O)S/C1=N/c1cc(-n2c(=O)cc(C(F)(F)F)n(C)c2=O)c(F)cc1Cl (centres unmarked)             3.0
 2  COC(=O)CCN1C(=O)CSC1=Nc1cc(-n2c(=O)cc(C(F)(F)F)n(C)c2=O)c(F)cc1Cl             9.0
 3  COC(=O)[C@H](Cc1ccccc1)N1C(=O)CS/C1=N/c1cc(-n2c(=O)cc(C(F)(F)F)n(C)c2=O)c(F)cc1Cl             3.0
 4  C=CCN1C(=O)C(CC(=O)Nc2ccccc2)SC1=Nc1cc(-n2c(=O)cc(C(F)(F)F)n(C)c2=O)c(F)cc1Cl (centres unmarked)             0.0
 5  Cn1c(C(F)(F)F)cc(=O)n(-c2cc(N=C3SCC(=O)N3CC(=O)OCC#N)c(Cl)cc2F)c1=O             9.0
 6  Cn1c(C(F)(F)F)cc(=O)n(-c2cc(/N=C3/SCC(=O)N3CC(=O)O)c(Cl)cc2F)c1=O             2.0
 7  CCOC(=O)CN1C(=O)C(CC(=O)O)SC1=Nc1cc(-n2nc(C)n(C(F)F)c2=O)c(F)cc1Cl (centres unmarked)             3.0
 8  O=C(O)CC1SC(=Nc2cc(N3C(=O)C4=C(CCCC4)C3=O)c(F)cc2Cl)N(CC(=O)O)C1=O (centres unmarked)             2.0
 9  Cn1c(C(F)(F)F)cc(=O)n(-c2cc(N=C3SCC(=O)N3C3CCOC3=O)c(Cl)cc2F)c1=O (centres unmarked)             9.0
10  Cn1c(C(F)(F)F)cc(=O)n(-c2cc(N=C3SCC(=O)N3Cc3ccco3)c(Cl)cc2F)c1=O             0.0
11  Cn1c(C(F)(F)F)cc(=O)n(-c2cc(N=C3SCC(=O)N3CCC(=O)O)c(Cl)cc2F)c1=O             6.0

----------
# Test system: CHEAL (Lambsquarters, Common)
# experiment: Postemergence herbicidal evaluation
# Assay type: in vivo, Chenopodium album
# measurement context: Rate 0.0313 kg/ha
This section presents compounds with their documented Postemergence herbicidal rating CHEAL values.

compound	Postemergence herbicidal rating CHEAL
CCOC(=O)CN1C(=O)C(Cc2ccccc2OC(C)C(=O)OC)SC1=Nc1cc(-n2c(=O)cc(C(F)(F)F)n(C)c2=O)c(F)cc1Cl (stereo not shown) [Compound 50]	3.0
CCOC(=O)CN1C(=O)C[S+]([O-])/C1=N/c1cc(-n2c(=O)cc(C(F)(F)F)n(C)c2=O)c(F)cc1Cl (stereo not shown) [Compound 45]	5.0
Cn1c(C(F)(F)F)cc(=O)n(-c2cc(N=C3SCC(=O)N3CC(=O)NS(C)(=O)=O)c(Cl)cc2F)c1=O [Compound 38]	3.0
O=C(O)CC1SC(=Nc2cc(N3C(=O)C4=C(CCCC4)C3=O)c(F)cc2Cl)N(CC(=O)O)C1=O (stereo not shown) [Compound 48]	4.0
